Listing of recorded log10(IC50) by entry.
Target: JAK3: Recombinant human kinase domain (Homo sapiens)
Construct: JAK3: Recombinant human kinase domain from Millipore (Cat #14-629) or prepared
Assay: Determination of IC50 of Janus Kinase (JAK) inhibition, radioactive end-point 33P-ATP assay, JAK3
Details: ATP 1.5 uM, peptide 50 uM, 20 minutes, read-out: JAK3-INHIB-DR/v1~NO ADDITIVE~Enzyme_Conc = 100
measure: log10(IC50) (log10 of the value in nM)

{"compound": "COC[C@@H](C)NC(=O)c1c[nH]c2ncc(-c3nn(C)c4cc(Cl)ccc34)nc12 [Example I-159]", "resultValue": 0.77}
{"compound": "CCCn1nc(-c2cnc3[nH]cc(C(=O)N[C@H](C)C(=O)N4CC(C#N)C4)c3n2)c2ccc(Cl)cc21 [Example I-92]", "resultValue": 0.32}
{"compound": "Cc1cc(C(C)NC(=O)c2c[nH]c3ncc(-c4nn(C)c5cc(F)ccc45)nc23)no1 (stereo not shown) [Example I-54]", "resultValue": 1.15}
{"compound": "COC[C@H](C)NC(=O)c1c[nH]c2ncc(-c3nn(CCn4cccn4)c4cc(F)ccc34)nc12 [Example I-244]", "resultValue": 0.74}
{"compound": "Cn1nc(-c2cnc3[nH]cc(C(=O)N[C@@H]4CCC[C@H](C#N)C4)c3n2)c2ccc(Cl)cc21 (relative stereo) [Example I-167]", "resultValue": 2.29}
{"compound": "C[C@@H](NC(=O)c1c[nH]c2ncc(-c3nn(C)c4cc(Cl)ccc34)nc12)C(C)(C)O [Example I-12]", "resultValue": 1.28}
{"compound": "Cn1nc(-c2cnc3[nH]cc(C(=O)N[C@@H]4CCCOC4)c3n2)c2ccc(Cl)cc21 [Example I-139]", "resultValue": 0.66}

###

Target: recombinant human SYK360-635 (Homo sapiens, UniProt P43405)
Construct: made in house
Assay: Determination of IC50 of Spleen Tyrosine Kinase (SYK) inhibition, 33P ATP filtration assay
Format: biochemical
Settings: SYK aa 360-635 0.5 nM; ATP 20 μM, peptide 5 μM, 0.1% BSA; read-out: SYK_ENZYME_FILTRATION/v1, BSA
pIC50: −log10 of the molar value. Counter-ions that a name gives are not always drawn.
Listing of recorded pIC50 by entry.

{"molecule": "CC(C)(N)CCCn1nc(-c2cnc3[nH]cc(C(=O)NC(C)(C)C)c3n2)c2cc(OC(F)F)ccc21 [Example I-454, trifluoroacetate]", "pIC50": 8.12}
{"molecule": "CC(C)(C)NC(=O)c1c[nH]c2ncc(-n3ncc4ccc(C(F)(F)F)cc43)nc12", "pIC50": 6.01}
{"molecule": "Cn1nc(-c2cnc3[nH]cc(C(=O)NCC(C)(C)C)c3n2)c2ccc(F)cc21", "pIC50": 7.72}
{"molecule": "CC(C)(C)NC(=O)c1c[nH]c2ncc(-c3nn(CCCN4CC(F)(F)C4)c4ccc(OC(F)F)cc34)nc12", "pIC50": 7.86}

###

Molecular target: JAK3: Recombinant human kinase domain (Homo sapiens, UniProt P52333)
Construct: JAK3: Recombinant human kinase domain from Millipore (Cat #14-629) or prepared
Sequence (P52333 822-1111 limits assumed): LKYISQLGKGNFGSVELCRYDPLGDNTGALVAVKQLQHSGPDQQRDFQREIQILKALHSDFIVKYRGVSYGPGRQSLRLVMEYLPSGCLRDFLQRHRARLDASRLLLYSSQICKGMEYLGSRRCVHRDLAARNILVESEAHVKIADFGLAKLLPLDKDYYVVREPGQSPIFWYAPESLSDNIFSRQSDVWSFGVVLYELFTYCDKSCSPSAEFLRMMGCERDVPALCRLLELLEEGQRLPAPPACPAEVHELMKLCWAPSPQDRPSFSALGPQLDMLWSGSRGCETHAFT
Assay: Determination of IC50 of Janus Kinase (JAK) inhibition, radioactive end-point 33P-ATP assay, JAK3
Conditions: ATP 1.5 uM, peptide 50 uM, 20 minutes, read-out: JAK3-INHIB-DR/v1~NO ADDITIVE~Enzyme_Conc = 100
measure: IC50 (nM)

{"compound": "CC(C)NC(=O)c1c[nH]c2ncc(-c3nn(CC4CC4)c4cc(Cl)ccc34)nc12", "measure": "IC50", "resultValue": 28.6}
{"compound": "C[C@@H](NC(=O)c1c[nH]c2ncc(-c3nc(S(C)(=O)=O)n4cc(F)ccc34)nc12)C(=O)N1CC(C#N)C1", "measure": "IC50", "resultValue": 1.25}
{"compound": "COCCn1nc(-c2cnc3[nH]cc(C(=O)N[C@H](C)C(=O)N4CC(C#N)C4)c3n2)c2ccc(Cl)cc21", "measure": "IC50", "resultValue": 2.34}
{"compound": "C[C@@H](NC(=O)c1c[nH]c2ncc(-c3nn(CC(=O)N(C)C)c4cc(Cl)ccc34)nc12)C(=O)N1CC(C#N)C1", "measure": "IC50", "resultValue": 4.17}

The measurements presented in this section are drawn from patent US8658646B2.
